Test: Plasma pharmacokinetics of AZD4635 and active metabolite in patients
Format: in vivo, human
Settings: human, plasma, oral, median t1/2, after a single dose, across doses
Property: half-life

Request: What value of measured half-life is listed for Cc1cc(-c2nnc(N)nc2-c2ccc(F)cc2)cc(Cl)n1 [AZD4635] ?
Response: 7.92 to 14.5 h

====

Test: Plasma pharmacokinetics of AZD4635 and active metabolite in patients
Type: in vivo, human
Conditions: human, plasma, oral, t1/2, overall (range, 11–24 hours)
Property: half-life

Request: I have this compound here, Cc1cc(-c2nnc(N)nc2-c2ccc(F)cc2)cc(Cl)n1 , and I need its recorded half-life.
Response: ~14 h
